- MEASUREMENT_NOTES: Simulated intestinal fluid (SIF) stability in the presence of various enzymes
- Type: in vitro ADME
- CONDITION_DESCRIPTION: SIF + Carboxypeptidase B, 15 min, 1 μM
One threshold, 80%, splits the recorded % Remaining of Initial (n = 1) values: lower ones are Criterion met, equal or higher ones are Criterion not met.

Worked cases, answers included:
CCCCCCCCCCCCCCCC(=O)NCCOC(=O)CCC [Compound I-2]: Criterion met
CCCCCCCCCCCCCCCC(=O)NCCOC(=O)CCC(=O)OCC(O)CO (centres unmarked) [Compound I-9]: Criterion met
CCCCCCCCCCCCCCCC(=O)NCCOC(=O)CCC(=O)OC[C@H]1O[C@@](CO)(O[C@H]2O[C@H](CO)[C@@H](O)[C@H](O)[C@H]2O)[C@@H](O)[C@@H]1O [Compound I-7]: Criterion met
CCCCC/C=C\C/C=C\CCCCCCCC(=O)OCCNC(=O)CCCCCCCCCCCCCCC [Compound I-6]: Criterion not met
CCCCCCCCCCCCCCCC(=O)NCCOC(=O)CCC(=O)OCC(COC(=O)CCC)OC(=O)CCC (centres unmarked) [Compound I-11]: Criterion met
CCCCC/C=C\C/C=C\CCCCCCCC(=O)OCC(COC(=O)CCC(=O)OCCNC(=O)CCCCCCCCCCCCCCC)OC(=O)CCCCCCC/C=C\C/C=C\CCCCC (centres unmarked) [Compound I-13]: Criterion met
CC/C=C\C/C=C\C/C=C\C/C=C\C/C=C\CCCC(=O)OCCNC(=O)CCCCCCCCCCCCCCC [Compound I-5]: Criterion not met

Field: next molecule
# input Is % Remaining of Initial (n = 1) strictly under 80% for the entry CCCCCCCCCCCCCCCC(=O)NCCOC(=O)CCC(=O)OCC(COC(=O)CCCCCCC)OC(=O)CCCCCCC (centres unmarked) [Compound I-3, PEA-Succinate-Glycerol-Di-Caprylic] ?
# output Criterion not met

====

- MEASUREMENT_NOTES: in vitro
- CONDITION_DESCRIPTION: both, human, s9, Half-life (min), calculated half-life in parentheses
MEASURE_NAME: half-life at 1 μM (h)
Quick reminder: number only, in h, skip the unit.

# input Quickly give me recorded half-life at 1 μM for CCCCC/C=C\C/C=C\CCCCCCCC(=O)OCCNC(=O)CCCCCCCCCCCCCCC [Compound I-6]
# output 1.7

====

- MEASUREMENT_NOTES: in vitro
- CONDITION_DESCRIPTION: male, Beagle, dog, microsomes, Calculated half-life (in parentheses)
MEASURE_NAME: half-life at 1 μM
Remember to follow the number with its unit.

# input Quickly give me recorded half-life at 1 μM for CC/C=C\C/C=C\C/C=C\C/C=C\C/C=C\CCCC(=O)OCCNC(=O)CCCCCCCCCCCCCCC [Compound I-5]
# output 1.73 h

====

The compounds listed here are annotated with their % Remaining of Initial (n = 1), 30 min.
- MEASUREMENT_NOTES: Plasma stability (37° C., pH 7.4), dog
- Assay type: in vitro ADME, Beagle dog
- CONDITION_DESCRIPTION: dog plasma, test article 1 μM, 37° C., pH 7.4, 30 min
Quick reminder: number only, in %, skip the unit.

CCCCCCCCCCCCCCCC(=O)NCCOC(=O)CCC(=O)OCC(O)CO (stereo not shown) [Compound I-9]: 12
CCCCC/C=C\C/C=C\CCCCCCCC(=O)OCCNC(=O)CCCCCCCCCCCCCCC [Compound I-6]: 42

In the following, a different compound is considered.
# input Quickly give me recorded % Remaining of Initial (n = 1), 30 min for CCCCCCCCCCCCCCCC(=O)NCCOC(=O)CCC(=O)OCC(COC(=O)CCCCCCC)OC(=O)CCCCCCC (stereo not shown) [Compound I-3, PEA-Succinate-Glycerol-Di-Caprylic]
# output 90

Hey, just so you know, these numbers are from patent US11547681B2.
